Molecular target: T1, murine CD22 protein (ACROBiosystems, SI2-M52Ha) (murine, UniProt P35329 22-708)
T1 construct: extracellular domain; also called murine CD22-ECD; murine CD22-ECD-His
T1 sequence (looked up): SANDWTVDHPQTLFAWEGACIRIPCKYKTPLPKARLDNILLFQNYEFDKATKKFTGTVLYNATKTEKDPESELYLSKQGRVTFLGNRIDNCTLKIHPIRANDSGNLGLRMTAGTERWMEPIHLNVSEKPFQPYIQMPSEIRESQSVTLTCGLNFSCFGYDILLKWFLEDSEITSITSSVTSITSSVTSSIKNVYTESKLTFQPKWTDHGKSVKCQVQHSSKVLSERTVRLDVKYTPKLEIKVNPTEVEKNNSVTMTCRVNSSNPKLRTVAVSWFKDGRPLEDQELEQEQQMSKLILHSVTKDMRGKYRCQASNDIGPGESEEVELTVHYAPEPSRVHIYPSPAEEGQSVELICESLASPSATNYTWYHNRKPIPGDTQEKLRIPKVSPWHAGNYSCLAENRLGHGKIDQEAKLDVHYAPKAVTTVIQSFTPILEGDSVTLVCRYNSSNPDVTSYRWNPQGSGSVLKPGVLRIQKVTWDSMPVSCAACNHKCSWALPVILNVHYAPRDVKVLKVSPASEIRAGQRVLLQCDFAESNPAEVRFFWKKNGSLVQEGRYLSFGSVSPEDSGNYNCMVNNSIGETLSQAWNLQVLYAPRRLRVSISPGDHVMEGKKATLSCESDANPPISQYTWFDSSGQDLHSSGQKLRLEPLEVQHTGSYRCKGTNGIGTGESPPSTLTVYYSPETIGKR
Test: ELISA, coated murine CD22, 10 nM Ab
METRIC: OD450 (OD450)
# value in OD450; strip the unit string

BINDER	METRIC	DISPLAY_UNIT	RECORDED_VALUE
HA22-hIgG1 (antibody, V domains shown) VH: EVQLVESGGGLVKPGGSLKLSCAASGFAFSIYDMSWVRQTPEKCLEWVAYISSGGGTTYYPDTVKGRFTISRDNAKNTLYLQMSSLKSEDTAMYYCARHSGYGTHWGVLFAYWGQGTLVTVSA VL: DIQMTQTTSSLSASLGDRVTISCRASQDISNYLNWYQQKPDGTVKLLIYYTSILHSGVPSRFSGSGSGTDYSLTISNLEQEDFATYFCQQGNTLPWTFGCGTKLEIKR	OD450	OD450	0.07

stdin: Quick one: OD450 of F1.200.11 human-murine chimeric antibody (antibody, human IgG1, kappa, V domains shown, Chimeric, human IgG1 / kappa) VH: QNQLVQSGPELKKPGETVKISCKASGYTFTTAGMQWVQKMPGKGFKWIGWINTLSGEPKYAEDFKGRFAFSLETSATTAYLQISNLKNEDTATYFCARAYYSNLYWYFDVWGTGTTVTVSS VL: DIVMTQSQKFMSTTVGDRVTITCKASQNVVTAVAWYQQKPGQSPKVLIYSASNRYSGVPDRFTGSGSGTDFTLTISNMHSEDLANYFCHQYSSYPFTFGSGTKLEIKR ?
stdout: 0.06

stdin: Quick one: OD450 of F2.42.9 human-murine chimeric antibody (antibody, human IgG1, lambda, V domains shown, Chimeric, human IgG1 / lambda; VL tied by name) VH: QVTLKESGPGILQPSQTLSLTCSFSGFSLSTFDRGVGWIRQPSGKGLEWLAHIWWNDKKFYNPVLKSRLTISKDTSKNQVFLTIANVDSADTATYSCARIVWDKYYFDYWGQGIPLTVSS VL: QLVLTQSSSASFSLGASAKLTCTLSSQHSAYTIEWYQQQPLKPPKFVMDLKKDGSHSTGDGIPARFSGSSSGADRYLTISNIQPEDEAIYICGVGDTIKEQYVFGGGTKVTVLG ?
stdout: 0.08
